Test system: CP329
experimentNotes: qHTS profiling for inhibitors of Plasmodium falciparum proliferation (AID 504749); further: nearly all actives have a fitted effect of over 60% in size
conditionsUsed: P. falciparum in erythrocytes, SYBR Green DNA, 72 h; series mostly up to 28.7 µM
Protocol: NIH National Institute of Allergy and Infectious Diseases [NIAID] NIH Chemical Genomics Center [NCGC] […] Because mature erythrocytes lack DNA, only Plasmodium-derived DNA is detected. NCGC Assay Protocol Summary: The SYBR Green viability assay was adapted from a method described previously (Plouffe et al., 2008). […] The following morning, fluorescence intensity at 485(14) nm excitation and 535(25) nm emission wavelengths was measured on an EnVision (Perkin Elmer) plate reader. […]
Records with an inconclusive call do not appear. Active and inactive are the calls of the source. The call rests on the fitted dose curve; in most records, active means well fitted inhibition curve with a large enough effect; inconclusive means small, poorly fitted or top-dose-only effect; inactive means flat fitted curve, though single readings scatter.
Outcome (select one): active, inactive

compound	labelValue
CCC(C(=O)O)C1CCC(C)C(C(C)C(O)C(C)C(=O)C(CC)C2OC3(C=CC(O)[C@@]4(CC[C@](C)(C5CC[C@@](O)(CC)C(C)O5)O4)O3)C(C)CC2C)O1 (some centres undefined)	active
OCC(O)C(O)C(O)CO (centres undefined)	inactive
Nc1nc2c(c(=O)[nH]1)N(C=O)[C@H](CNc1ccc(C(=O)N[C@@H](CCC(=O)O)C(=O)O)cc1)CN2	inactive

INPUT: Please indicate how the test categorized COc1cccc2c1C(=O)c1c(O)c3c(c(O)c1C2=O)C[C@@](O)(C(=O)CO)C[C@@H]3O[C@H]1C[C@H](N)[C@H](OC2CCCCO2)[C@H](C)O1 (some centres undefined) .
OUTPUT: active

====

System: HaCat
experimentNotes: Cytotoxic Profiling of Annotated Libraries Using Quantitative High-Throughput Screening (AID 1296008); further: nearly all actives have a fitted effect of over 60% in size
conditionsUsed: Five cell lines viability, CellTiter-Glo ATP luminescence, 48-72 h
Inconclusive results are not listed. Activity calls are given as the source filed them. Calls follow the shape of the dose curve; as a rule, active = well fitted inhibition curve with a large enough effect; inconclusive = small, poorly fitted or top-dose-only effect; inactive = flat fitted curve, though single readings scatter.
Choose the fitting class; nothing outside T for active, F for inactive is accepted.

INPUT: Tell me the assay call for "Cc1nc(NC(=O)N2CCC[C@@H]2C(N)=O)sc1-c1ccnc(C(C)(C)C(F)(F)F)c1" please.
OUTPUT: T

INPUT: Which outcome was assigned to CCCCCCCCCCCC(CC1OC(=O)C1CCCCCC)OC(=O)C(CC(C)C)NC=O (stereo unspecified) in this test?
OUTPUT: F

====

experimentNotes: Quantitative High-Throughput drug screen in 47 multiple myeloma cell lines against the NCATS MIPE library collection: KMS12PE_JCRB cell viability assay (AID 1918972); further: nearly all actives have a fitted effect of over 30% in size
conditionsUsed: KMS12PE myeloma viability, CellTiter-Glo ATP, 48 h; series mostly up to 45.8 µM
Inconclusive results are not listed. Active and inactive are the calls of the source. The call rests on the fitted dose curve; in most records, active means well fitted cell-killing curve with a large enough effect; inconclusive means small, poorly fitted or top-dose-only effect, or effect the other way; inactive means no such curve, though single readings can be large or run the other way. Residues, ends and D or L forms follow the SMILES beside them. *: point of attachment. Cbz = O=C(OCc1ccccc1)*
Respond using exactly one of the listed classes: Y (active), N (inactive)

Example entries and their recorded answers appear below.
> print(dat)
                                   compound  labelvalue
1  FC(F)(F)c1ccc(Nc2nc3ccc(Oc4ccnc(-c5ncc(C(F)(F)F)[nH]5)c4)cc3[nH]2)cc1           Y
2  CCN(CC)Cc1ccc2cc(COC(=O)Nc3ccc(C(=O)NO)cc3)ccc2c1           Y
3  O=C(NC1CC1)c1cccc(-c2ccc3c(NC(=O)C4CC4)n[nH]c3c2)c1           N

Please look at the following compound next.
INPUT: Which result was noted for this compound in the test: CC(C)C[C@@H](C=O)NC(=O)[C@H](CC(C)C)NC(=O)[C@H](CC(C)C)NC(=O)OCc1ccccc1 (Cbz-Leu-Leu-Leu-aldehyde)
OUTPUT: Y
